method_notes: in vivo
setup_conditions: Sprague-Dawley, rat, iv, 5 mg/kg
measure: Vd (L/kg)
State just the number; it will be interpreted in L/kg.

[in] Answer with reported Vd of CCC[C@H](NC(=O)[C@@H]1[C@H]2CCC[C@H]2CN1C(=O)[C@@H](NC(=O)[C@@H](NC(=O)c1cnccn1)C1CCCCC1)C(C)(C)C)C(=O)C(=O)NC1CC1
[out] 2.4

----------
method_notes: Pharmacokinetics of SCH 503034 in rats, with or without coadministered ritonavir
Format: in vivo, Sprague-Dawley derived rats
setup_conditions: Sprague-Dawley, plasma; rat; IV 5 mg/kg; mean (SEM), n=3
measure: AUC (ng·h/mL)
State just the number; it will be interpreted in ng·h/mL.

[in] Answer with reported AUC of CC(C)(C)NC(=O)N[C@H](C(=O)N1C[C@H]2[C@@H]([C@H]1C(=O)NC(CC1CCC1)C(=O)C(N)=O)C2(C)C)C(C)(C)C (stereo partly shown)
[out] 3120
